- target: CB1 receptors (Rattus norvegicus)
- protocolText: CB1 receptor internalization in HEK293 cells stably expressing CB1
- experimentalParameters: read-out: EC50 of CB1 internalization; 2 hour treatment; mean (95% CI)
Please respond with satisfied when measured EC50 is strictly beneath 3 nM, and with not satisfied in all other cases.

[Q] Hello, I'm reviewing records and need to know if EC50 of `CCCCn1cc(C(=O)c2cccc3ccccc23)c2ccccc21` is below 3 nM. Could you check?
[A] not satisfied

[Q] Hello, I'm reviewing records and need to know if EC50 of CCCCCCCC(C)(C)c1ccc([C@H]2CCC[C@@H](O)C2)c(O)c1 [cis-CP47,497-C8] is below 3 nM. Could you check?
[A] satisfied

[Q] Hello, I'm reviewing records and need to know if EC50 of CCCCCCCC(C)(C)c1ccc([C@@H]2CCC[C@@H](O)C2)c(O)c1 [trans-CP47,497-C8] is below 3 nM. Could you check?
[A] satisfied

[Q] Hello, I'm reviewing records and need to know if EC50 of CCCCCCCC(C)(C)c1ccc([C@H]2CCC[C@@H](O)C2)c(O)c1 [CP47,497-C8] is below 3 nM. Could you check?
[A] not satisfied

[Q] Hello, I'm reviewing records and need to know if EC50 of `CCCCCn1cc(C(=O)c2cccc3ccccc23)c2ccccc21` is below 3 nM. Could you check?
[A] not satisfied

* * *

For each entry below, report its IC50 value.
- target: CB1 receptors (Mus musculus)
- Sequence (P47746 whole entry): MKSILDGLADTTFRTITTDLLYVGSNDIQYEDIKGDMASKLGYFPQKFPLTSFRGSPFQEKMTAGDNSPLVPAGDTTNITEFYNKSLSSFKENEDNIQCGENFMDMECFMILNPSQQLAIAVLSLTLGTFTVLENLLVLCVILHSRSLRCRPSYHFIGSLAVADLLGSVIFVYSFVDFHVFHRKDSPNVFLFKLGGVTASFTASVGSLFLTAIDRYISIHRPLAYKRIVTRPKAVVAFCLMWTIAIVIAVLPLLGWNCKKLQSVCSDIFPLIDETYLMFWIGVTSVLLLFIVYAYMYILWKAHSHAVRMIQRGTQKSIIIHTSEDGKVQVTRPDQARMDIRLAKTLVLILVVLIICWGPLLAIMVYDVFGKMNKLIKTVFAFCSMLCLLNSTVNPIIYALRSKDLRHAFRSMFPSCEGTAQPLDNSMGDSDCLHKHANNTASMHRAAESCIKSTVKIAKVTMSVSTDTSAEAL
- protocolText: Inhibition of EPSCs
- experimentalParameters: read-out: IC50 of EPSC suppression; autaptic hippocampal neurons; mean (95% CI)
Please state the figure in nM; there is no need to write the unit.

[Q] Return IC50 (reported value) for this compound: `CCCCCCCC(C)(C)c1ccc([C@H]2CCC[C@@H](O)C2)c(O)c1`
[A] 15.4

[Q] Return IC50 (reported value) for this compound: `CCCCn1cc(C(=O)c2cccc3ccccc23)c2ccccc21`
[A] 49.4

* * *

- target: CB1 receptors (Rattus norvegicus, UniProt P20272)
- Sequence (P20272 whole entry): as the sequence (P47746 whole entry) above, with D95E counted along it
- protocolText: CB1 receptor internalization in HEK293 cells stably expressing CB1
- Format: cell-based
- experimentalParameters: 100 nM drug, up to 6 hours; mean ± S.E.M.
For each entry below, report its plateau / maximal internalization in time course value.

[Q] Return plateau / maximal internalization in time course (reported value) for this molecule: CCCCCCCC(C)(C)c1ccc([C@@H]2CCC[C@@H](O)C2)c(O)c1 [trans-CP47,497-C8]
[A] 47.7 ± 3.1 % of basal surface levels

[Q] Return plateau / maximal internalization in time course (reported value) for this molecule: CCCCCCCC(C)(C)c1ccc([C@H]2CCC[C@@H](O)C2)c(O)c1 [CP47,497-C8]
[A] 51.4 ± 2.2 % of basal surface levels

[Q] Return plateau / maximal internalization in time course (reported value) for this molecule: CCCCn1cc(C(=O)c2cccc3ccccc23)c2ccccc21 [JWH073]
[A] 57.5 ± 3.1 % of basal surface levels

[Q] Return plateau / maximal internalization in time course (reported value) for this molecule: CCCCCCCC(C)(C)c1ccc([C@H]2CCC[C@@H](O)C2)c(O)c1 [cis-CP47,497-C8]
[A] 48.4 ± 2.4 % of basal surface levels

[Q] Return plateau / maximal internalization in time course (reported value) for this molecule: CCCCCn1cc(C(=O)c2cccc3ccccc23)c2ccccc21 [JWH018]
[A] 50.7 ± 2.6 % of basal surface levels

* * *

- target: CB1 receptors (Rattus norvegicus)
- protocolText: CB1 receptor internalization in HEK293 cells stably expressing CB1
- Assay type: cell-based
- experimentalParameters: 2 hour treatment, at 1 μM; mean ± S.E.M.
For each entry below, report its maximal internalization (Emax) value.

[Q] Provide CB1 receptors (Rattus norvegicus) maximal internalization (Emax) reading for CCCCn1cc(C(=O)c2cccc3ccccc23)c2ccccc21 [JWH073] .
[A] 61.2 ± 2.5 % of basal surface levels

[Q] Provide CB1 receptors (Rattus norvegicus) maximal internalization (Emax) reading for CCCCCCCC(C)(C)c1ccc([C@@H]2CCC[C@@H](O)C2)c(O)c1 [trans-CP47,497-C8] .
[A] 54.9 ± 3.7 % of basal surface levels

[Q] Provide CB1 receptors (Rattus norvegicus) maximal internalization (Emax) reading for CCCCCCCC(C)(C)c1ccc([C@H]2CCC[C@@H](O)C2)c(O)c1 [cis-CP47,497-C8] .
[A] 53.8 ± 2.4 % of basal surface levels

[Q] Provide CB1 receptors (Rattus norvegicus) maximal internalization (Emax) reading for CCCCCCCC(C)(C)c1ccc([C@H]2CCC[C@@H](O)C2)c(O)c1 [CP47,497-C8] .
[A] 52.7 ± 4.3 % of basal surface levels

[Q] Provide CB1 receptors (Rattus norvegicus) maximal internalization (Emax) reading for CCCCCn1cc(C(=O)c2cccc3ccccc23)c2ccccc21 [JWH018] .
[A] 45.2 ± 2.0 % of basal surface levels
